Molecular target: T1, huZIP12-ECD-GST (human, UniProt Q504Y0 24-202)
T1 construct: also called hZIP12-ECD-GST; human ZIP12-ECD-GST; not shown: glutathione S-transferase (GST) tag
T1 sequence (Q504Y0 24-202): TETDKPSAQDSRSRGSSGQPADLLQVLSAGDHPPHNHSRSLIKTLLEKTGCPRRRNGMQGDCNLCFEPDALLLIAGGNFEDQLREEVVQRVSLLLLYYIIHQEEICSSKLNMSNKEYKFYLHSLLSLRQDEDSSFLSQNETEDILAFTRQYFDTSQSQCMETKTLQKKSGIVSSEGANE
Experiment: SPR single cycle kinetics (Biacore): mAb captured on protein A, huZIP12-ECD-GST injected at 2.34-600 nM, extended dissociation
Listed here are binders together with their documented Kd.
Give the number; nM is assumed, so skip it.

{"columns": ["binder", "observable", "observed value"],
 "data": [
  ["H3_W99H_VL-par (antibody, V domains shown, Fc null human IgG1 / human kappa) VH: QVQLVESGGGVVQPGRSLRLSCAASGFTFSDYGMHWVRQAPGKGLEWVAYISSGGTTIYYADTVKGRFTISRDNSKNTLYLQMNSLRAEDTAVYYCARHTNLYAMDYWGQGTTVTVSS VL: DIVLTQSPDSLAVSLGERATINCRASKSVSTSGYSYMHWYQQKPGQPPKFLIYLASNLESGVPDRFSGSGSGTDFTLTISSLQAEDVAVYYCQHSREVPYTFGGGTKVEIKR", "Kd", 0.322]
]}

What does the record list as Kd for H2_G66Q_VL-par (antibody, V domains shown, Fc null human IgG1 / human kappa) VH: QVQLVESGGGVVQPGRSLRLSCAASGFTFSDYGMHWVRQAPGKGLEWVAYISSGGTTIYYADTVKQRFTISRDNSKNTLYLQMNSLRAEDTAVYYCARWTNLYAMDYWGQGTTVTVSS VL: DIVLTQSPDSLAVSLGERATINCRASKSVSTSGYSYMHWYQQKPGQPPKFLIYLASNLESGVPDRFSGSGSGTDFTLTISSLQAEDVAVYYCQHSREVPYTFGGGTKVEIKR ?
0.83

Could you tell me which Kd is on file for 51B12 parent (antibody, V domains shown, Fc null human IgG1 / human kappa) VH: QVQLVESGGGVVQPGRSLRLSCAASGFTFSDYGMHWVRQAPGKGLEWVAYISSGGTTIYYADTVKGRFTISRDNSKNTLYLQMNSLRAEDTAVYYCARWTNLYAMDYWGQGTTVTVSS VL: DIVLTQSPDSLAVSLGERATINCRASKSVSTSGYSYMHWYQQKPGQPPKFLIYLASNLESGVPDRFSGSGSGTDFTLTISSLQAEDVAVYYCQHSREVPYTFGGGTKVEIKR ?
1.09
